Origin of measurements: the nanobody polyreactivity screen of Harvey et al. (2022)

assay: yeast display, Sf9 membrane polyspecificity reagent, FACS + sequencing; frameworks hold sequencing errors
MEASURE: polyreactivity (PSR sort gate)

* QVQIVESGGGLVQAGGILRLSCAASGSTFSFNAMGWYRQAPGKERELVAAITGGDGTIYADSVKGRFTISRDNAKNTVYLQMNSLKPEVTAVYYCAADQWGSTEDYWFTYGYWGQGTQVTVSS | low polyreactivity
* QVQLVESGGGIVQAGGSLRLSCAASGRIFANYAKGWYRQAPGKERELVAAISRSGGSTSYADSVKGRFTISRDNAKYTVYLQMNSLKPEETAVSYCAVVSPRQSYYYWGQGTQVTVSS | high polyreactivity
* QVQLVESGGGLVQAGGSLRLSCAASGLTFPQYVMGWYRQAPGKERELVASISRSGGNTYYADSVKGRFTISRDNAKNTVYLQMNSLKPEDTAVYYCAAEYIFHYYDIFDYWGQGTQVTVSS | high polyreactivity
* QVQLVESGGGLVQAGGILRLSSAASGFIFKANAMGWSRQAPGKERELVAVITRRGGSTYYADSVKGSFTISRDNAKNTVYLQMNSLKREDTAVYYSAKEGSARYGPSDAYDYWGQGTQVTVSS | high polyreactivity
* QVQLVESGGGLVQAGGSLRLSCAASGSTFDVYAMGWYRQAPGKERELVATITGSGGSTYYADSVKGRFTISRDNAKNTVYLQMNSLKPEDTAVYYCAARYPVSGGYDYWGQGTQVTVSS | low polyreactivity

----------
experiment: yeast display, Sf9 membrane polyspecificity reagent, FACS + sequencing; frameworks hold sequencing errors
MEASURE: polyreactivity (PSR sort gate)

• QVQLVESGGGLVQAGGSLRLSCAASVSTLRYYAMGWYRQAPGKERELVAAISYSGGSTYYADSVKGRFTISRDNAKNTVYLQMNRLKPEDTAVYYCNAEWGWRRYGSSYVYWGQGTQVTVSS = high polyreactivity
• QVQLVESGGGLVQAGGSLRLSCAASGRTFQLNAMGWYRQAPGKERELFAAISTRGGSTYYADSVKGRFTISRDNAKNTVYLQMNSLKPEDTAVYYCATDPSFSRGYKEGGGYDYWGQGTQVTVSS = high polyreactivity

----------
experiment: yeast display, Sf9 membrane polyspecificity reagent, FACS + sequencing; frameworks hold sequencing errors
MEASURE: polyreactivity (PSR sort gate)

- QVQLVESGGGLVQAGGSLRLSCAASGIIFHVYAMGWYRQAPGKERELVAAISDDGSTNYADSVKGRFTISRDNAKNTVYLQMNSLKPEDTAVYYCAKESWGRLYYRYDYWGQGTQVTVSA: low polyreactivity
- QVQLVESGGGLVQAGCSLRLSCAASGSNFEENAMGWYRQAPGKESELVAAITIGGRTNYADSVKGRFTISRDNAKNTVYLQMNSLKPEDTAVYYCAADLSSNKYWRFWTRYYYWGQGTQVTVSS: low polyreactivity

----------
assay: yeast display, Sf9 membrane polyspecificity reagent, FACS + sequencing; frameworks hold sequencing errors
MEASURE: polyreactivity (PSR sort gate)

• QVQHVESGGCLVQAGGILRLSCAASGSIFQSNTMGWYRQAPGKVRELVAYISNGGTTTYANSVKGRFTISRDNAKTTVYLQMNSLKPEDTAVYYCATYYWQYYEYDYWGQGTQVTVSS = low polyreactivity
• QVQLVESGGGLVQAGGSLRLSCAASGSTFSTYAMGWYRQAPGKERELVAAISRTGGSTYYADSVKGRFTISRDNAKNTVYLQMNSLKPEDTAVYYCAADEDWEYWAPWYDYWGQGTQVTVSS = low polyreactivity
• QDQLVESAGGLVQAGGSRRLSCAASGFTFYRNAMGCYRQAPGKERELVAAISITGGRTYYADSVKGRFTISRDNAKNTVYLQMNSLIPEDTAVYYCAKDRQRYGGDFDYWGQGTQLTVSS = high polyreactivity
• QVQLVESGGGIVQAGGSLRLSCAASGSIFQYNAMGWYRQAPGKERELVAAITRGDSTYYADSVKGRFTISRDNAKNTVYLQMNSLKPEDTAVYYCAARPRGKYDYWGQGTQVTVSS = high polyreactivity
• QVQLVESGGGLVQAGGSLRFSCAASGRIFTFYAMGWYRQAPGKERELVAAITSGGSTYYADSVKGRFTISRDNAKNTVYLQMNSLKPEDTAVYYCNALHHTQHDYWGQGTQVTVSS = low polyreactivity
• QVQLVESGGGLVQAGGSLRLSCAASGSIFYSNKGWYRQAPGKEREFVAAISGSGVRTYYADSVKGRFTISRDNAKNTVYLQMNSLKPEDTAVYYCNAGRRQDYRYIYWGQGTQVTVSS = high polyreactivity
• QVQLVESGGGLVQAGGSLRLSCAASGSTSSSKAMGWYREAPGKERELVATITNGSGTSYADSVKGRFTISRDNAKNTVYLQMNSLKPEDTAVYYCYVSSLNSYTSGTTYWGLDYWGQGTQVTVSS = low polyreactivity
• QVQLVESGGGLVQAGGSPRLSCAASGRIFHPYAMGWYRQAPGKERELVATISWSGGSTTYADSVKGRFTISRDNAKNTVYLQMNSLKPEDTAVYYCNADYWWSYVRFDYWGQGTQVTVSS = low polyreactivity
• QVKLVESGGGLVQAGGSLRLICAASGFTFRYYTMGWYRQAPGKARELVAAISRSSGSRTYYADSVKGRFTISRDNAKNTVYLQMNSLKPEDTAVYYCNADPAYQFDYWGQGTQVTVSS = high polyreactivity
• QVQLVESGGGLVQAGGSLRLSCAASGFTFLYGMGWYRQAPGEERELVAAISNTGGSTYYADSVKGRFTISRDNAKNTVYLQMNSLKPEDTAVYYCAADGGQWWVFYALDFWGQGTQVTVSS = low polyreactivity
• QVQLVESGGGLVQAGGSLRLSCAASGRTFDSNAMGWYRQAPGKERELVAGISESGGSTYYADSVKGRFTISRDNAKNTVYLQMNSLKPEDTAVYYCAYSGITVYYHRAVDFIVSYDYWGQGTQVTVSS = low polyreactivity

----------
experiment: yeast display, Sf9 membrane polyspecificity reagent, FACS + sequencing; frameworks hold sequencing errors
MEASURE: polyreactivity (PSR sort gate)

- QVQLVESGGGLVQAGGNLRLSCAASGLIFGGYAMGWYRPAPGKERELVAAISRTGGRTYYADSVKVRFTISRDNAKNTVYLQMNSLKPEDTAVYYCATKRWWVRYDYWGQGTQVTVSS: high polyreactivity
- QVQVVESGGGIVHAEGSLRLSCAPSGLTFPVYAMVWYRQAPRKERELVAAISKSGGNTYYADSVKGRFTISRDNAKNTVYLQMNSLKPEDTAVYYCAAGYLSGNYARYGYWGQGTQVTVSS: high polyreactivity
- QVQLVESGGGLVQAGGSLRLSCAASGRIFGPYTMGWYRQAPGKEREFVAAITRRGGSTYYADSVKGRFTISRDNAKNTVYLQMNSLKPEDTAVYYCAAVGQKRSLGYSWGQGTQVTVSS: low polyreactivity
- QVQLVESGGGLLQAGRSLRLSCAASGSTFRAYTMGWYRQAPGIERELVAAINSGGSTYYADSVKGRFTISRDNAKNTVYLQMNSLKAEDTAVYYCNRRFYRAVKYGYWGQGTQVTVSS: low polyreactivity
- QVQLVESGGGLVQAGGSLRLSCAASGSIFKKYAMGWYRQSPGKERELVAAISSTGGSTKYADSVKGRFTISRDNAKNTVYLQMNSLKPEDTAVYYCAVRYKWPYDYWGQGTQVTVSS: high polyreactivity
- QVQLVESGGGLVQAGGSLRLSCDASGRIFNYYAMGWYRQAPGKERELVAAITWNGGNTYYADSVKGRFTISRDNAKNTVYLQMNSLKPEDTAVYYCNAYPWYPGDYWGQGTQVTVSS: high polyreactivity
- QVQLVESGGGLVQAGGSLRLSCAASGSTFQYYAMGWYSQAPGKERELVAAISYGGSRTYYADSVKGRFTISRDNAKNTVYLQMNSLKPEDTAVYYCAKEKYRALAPYYYWGQGTQVTVSS: high polyreactivity
- QVQLVESGGGLVQAGGSLRLSCAASGGTFAVNAMGWYRQAPGKEREFVAAISSRGSTYYADSVKGRFTISRDNAKNNVYLQMNSLKPEDTAVYYCAAYRSYWEVYPRMYYWGQGTQVTVSS: high polyreactivity
- QVQLVESGGGLVQAGGSLRLSCAASGSTFSYYAMGWYRQAPGKEREFVAAISRSGGRTYYADSVKGRFKISRDNAKNTVYLQLNSLKPEDTAVYYCATVYYYDFSRTHPWPGDYWGQGTQVTVSS: high polyreactivity
- QVHLVESGGGLVQAGGSLRLSCAASGRTFRYNAMGWYRQAPGKERELVATISSSGGSTSYADSVKGRFTISRDNAKNTVYLQMNSLKPEDTAVYYCNKRRLVAPGNGMDSWGQGTQVTVSS: low polyreactivity
- QVQLVESGGGLVQAGGSLRLSCAASGRTFWYYPMGWYRQAPGKEREFVAAISWSGGSTYYADSVKGRFTISRDNAKNTVYLQMNSLKPEDTAVYYCAADRYDSSQFYYWGQGTQVTVSS: low polyreactivity
